The reported numbers originate from patent US10722514B2.

Collected pIC50 values appear next to each entry.
- MEASUREMENT_TARGET: recombinant full-length USP7 (Homo sapiens, UniProt Q93009)
- Construct: A 25 μl reaction volume containing recombinant full-length USP7 (62 pM)
- Sequence (Q93009 whole entry): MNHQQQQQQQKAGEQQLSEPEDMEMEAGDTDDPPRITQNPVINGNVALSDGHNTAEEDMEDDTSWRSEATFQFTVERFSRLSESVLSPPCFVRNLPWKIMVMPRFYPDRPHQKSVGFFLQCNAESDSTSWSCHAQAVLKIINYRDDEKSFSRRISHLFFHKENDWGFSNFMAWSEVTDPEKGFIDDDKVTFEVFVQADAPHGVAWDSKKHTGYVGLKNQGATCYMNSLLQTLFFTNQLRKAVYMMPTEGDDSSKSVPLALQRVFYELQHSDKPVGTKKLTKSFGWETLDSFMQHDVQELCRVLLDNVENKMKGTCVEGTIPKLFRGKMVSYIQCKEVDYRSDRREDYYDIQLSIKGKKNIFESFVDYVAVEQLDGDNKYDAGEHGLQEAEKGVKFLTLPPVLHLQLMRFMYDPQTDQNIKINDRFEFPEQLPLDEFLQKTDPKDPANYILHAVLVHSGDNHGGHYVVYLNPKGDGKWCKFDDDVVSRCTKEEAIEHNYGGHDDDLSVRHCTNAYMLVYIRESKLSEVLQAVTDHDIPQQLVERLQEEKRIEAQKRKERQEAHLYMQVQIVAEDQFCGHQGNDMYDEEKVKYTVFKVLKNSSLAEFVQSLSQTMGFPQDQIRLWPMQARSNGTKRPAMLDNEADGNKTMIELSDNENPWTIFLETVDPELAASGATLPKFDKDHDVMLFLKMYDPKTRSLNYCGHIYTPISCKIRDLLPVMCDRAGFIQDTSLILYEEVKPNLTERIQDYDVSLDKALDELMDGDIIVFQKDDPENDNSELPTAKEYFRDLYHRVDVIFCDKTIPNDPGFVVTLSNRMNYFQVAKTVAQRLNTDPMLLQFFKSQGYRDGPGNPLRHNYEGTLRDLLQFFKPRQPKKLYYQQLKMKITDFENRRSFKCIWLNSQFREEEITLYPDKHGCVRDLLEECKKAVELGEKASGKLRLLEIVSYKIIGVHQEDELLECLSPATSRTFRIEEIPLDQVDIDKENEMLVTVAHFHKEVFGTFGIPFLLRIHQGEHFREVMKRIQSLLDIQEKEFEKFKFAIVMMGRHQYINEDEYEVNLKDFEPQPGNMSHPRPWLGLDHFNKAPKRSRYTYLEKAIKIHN
- ASSAY_TEXT: USP7-mediated ubiquitin-rhodamine cleavage assay
- Type: biochemical
- APPLIED_CONDITIONS: recombinant full-length USP7 62 pM; ubiquitin-rhodamine 100 nM; 30-minute incubation with compound, 1 hour reaction at room temperature; read-out: Potency: USP7 IC50
pIC50: −log10 of the molar value. Structures can show the parent of a compound that is named as a salt.
PROPERTY_LABEL: pIC50

Cc1cc(Cl)cc(-c2ccnc3cc(CN4C(=O)C5CC5C4=O)sc23)c1OC1CN2CCC1CC2 (stereo not shown)
> 6.00
Cc1cc(Cl)cc(-c2ccnc3cc(CN4C(=O)CCC4=O)sc23)c1O[C@H]1CCCCNC1
> 6.00
Cc1cc(C#N)cc(-c2ccnc3cc(CN4C(=O)CCC4=O)sc23)c1OC1CCNCC1
> 6.00
OCc1cc2nccc(-c3cc(F)cc(Br)c3O[C@H]3CCCNC3)c2s1
4.52 to 5.00
Cc1cc(Cl)cc(-c2ccnc3cc(CO)sc23)c1OC1CC2CNC1C2 (stereo not shown)
5.00 to 6.00
CCC1(C)CC(=O)N(Cc2cc3ncnc(-c4cc(Cl)cc(C)c4O[C@@H]4CNC[C@@H]4F)c3s2)C1=O (stereo partly shown)
> 6.00
Cc1cc(Cl)cc(-c2ccnc3cc(CN4C(=O)C5C(C4=O)C5(C)C)sc23)c1OC1CN(C)CC1(C)F (stereo not shown) [Example 375, dihydrochloride]
> 6.00
